# Lookup of reported Drug concentration in lung at 2 hours Lung@2 h keyed by entry
Assay remarks: Cassette pharmacokinetics test in mice
Type: in vivo, male CD-1 mice
Assay context: PO 2.5 mpk, cassette dosing, lung, 2 h
Property name: Drug concentration in lung at 2 hours Lung@2 h (nmol/kg)

{"columns": ["Chem smiles", "Observed measurement"],
 "data": [
  ["C[C@@H](Oc1cc(-c2cnn(C3CCNCC3)c2)cnc1N)c1c(Cl)ccc(F)c1Cl", 5088],
  ["C[C@H]1Oc2cc(cnc2N)-c2c(nn(C)c2C#N)CN(C)C(=O)c2ccc(F)cc21", 2016],
  ["N#Cc1nn2ccc3nc2c1C(=O)NC1(CC1)COc1ncc(F)cc1[C@H]1CCON31", 2862],
  ["C[C@H]1CNC(=O)c2cnn3ccc(nc23)N[C@H](C)c2cc(F)ccc2O1", 1434],
  ["CN1CCN(c2ccc(C(=O)Nc3n[nH]c4ccc(Cc5cc(F)cc(F)c5)cc34)c(NC3CCOCC3)c2)CC1", 5958]
]}

###

Assay remarks: Cassette pharmacokinetics test in mice
Assay type: in vivo, male CD-1 mice
Assay context: male, CD-1, mouse, plasma, 0.5 mg/kg, IV 0.5 mpk, cassette dosing, read-out: Apparent volume of distribution Vd
Property name: Vd (L/kg)

{"columns": ["Chem smiles", "Observed measurement"],
 "data": [
  ["C[C@H]1Oc2cc(cnc2N)-c2c(nn(C)c2C#N)CN(C)C(=O)c2ccc(F)cc21", 1.79],
  ["CN1CCN(c2ccc(C(=O)Nc3n[nH]c4ccc(Cc5cc(F)cc(F)c5)cc34)c(NC3CCOCC3)c2)CC1", 1.39],
  ["N#Cc1nn2ccc3nc2c1C(=O)NC1(CC1)COc1ncc(F)cc1[C@H]1CCON31", 0.551],
  ["C[C@@H](Oc1cc(-c2cnn(C3CCNCC3)c2)cnc1N)c1c(Cl)ccc(F)c1Cl", 4.93],
  ["C[C@H]1CNC(=O)c2cnn3ccc(nc23)N[C@H](C)c2cc(F)ccc2O1", 5.26]
]}

###

List of IC50 tested on TrkA (Homo sapiens, UniProt P04629).
Sequence (P04629 33-796): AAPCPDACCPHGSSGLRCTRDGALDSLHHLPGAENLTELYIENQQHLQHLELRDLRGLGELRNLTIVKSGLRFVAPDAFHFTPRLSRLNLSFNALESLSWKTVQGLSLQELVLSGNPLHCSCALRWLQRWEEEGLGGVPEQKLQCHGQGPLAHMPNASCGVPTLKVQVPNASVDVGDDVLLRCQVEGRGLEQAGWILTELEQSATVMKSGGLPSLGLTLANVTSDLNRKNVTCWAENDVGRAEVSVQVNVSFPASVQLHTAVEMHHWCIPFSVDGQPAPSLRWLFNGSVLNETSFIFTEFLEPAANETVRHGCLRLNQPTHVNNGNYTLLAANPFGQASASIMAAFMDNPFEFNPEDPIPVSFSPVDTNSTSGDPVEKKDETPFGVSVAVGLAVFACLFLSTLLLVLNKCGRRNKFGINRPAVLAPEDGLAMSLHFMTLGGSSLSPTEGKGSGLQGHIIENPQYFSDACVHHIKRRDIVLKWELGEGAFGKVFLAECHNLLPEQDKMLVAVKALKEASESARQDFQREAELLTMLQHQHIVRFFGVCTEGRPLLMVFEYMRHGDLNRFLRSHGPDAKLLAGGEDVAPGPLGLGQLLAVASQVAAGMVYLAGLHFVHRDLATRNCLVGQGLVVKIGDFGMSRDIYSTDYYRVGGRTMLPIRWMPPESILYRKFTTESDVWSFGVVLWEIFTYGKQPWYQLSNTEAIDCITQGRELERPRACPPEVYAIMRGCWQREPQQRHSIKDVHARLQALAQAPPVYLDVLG

{"columns": ["Compound", "Target under test", "Unit string", "IC50"],
 "data": [
  ["N#Cc1nn2ccc3nc2c1C(=O)NC1CC(C1)Oc1ncc(F)cc1C1CCON31 (centres unmarked) [WX-002B]", "TrkA (Homo sapiens, UniProt P04629)", "nM", 597],
  ["N#Cc1nn2ccc3nc2c1C(=O)NC1(CC1)COc1ncc(F)cc1[C@H]1CCON31 [WX-001]", "TrkA (Homo sapiens, UniProt P04629)", "nM", 231]
]}

###

Assay remarks: Cassette pharmacokinetics test in mice
Type: in vivo, male CD-1 mice
Assay context: PO 2.5 mpk, cassette dosing, brain, 2 h
Short version: Drug concentration in brain at 2 hours Brain@2 h at least 700 nmol/kg is 1 (yes), less is 0 (no).

{"columns": ["Compound", "Qualitative label"],
 "data": [
  ["CN1CCN(c2ccc(C(=O)Nc3n[nH]c4ccc(Cc5cc(F)cc(F)c5)cc34)c(NC3CCOCC3)c2)CC1 [Entrectinib]", "0 (no)"],
  ["N#Cc1nn2ccc3nc2c1C(=O)NC1(CC1)COc1ncc(F)cc1[C@H]1CCON31 [WX-001]", "0 (no)"],
  ["C[C@@H](Oc1cc(-c2cnn(C3CCNCC3)c2)cnc1N)c1c(Cl)ccc(F)c1Cl [Crizotinib]", "0 (no)"],
  ["C[C@H]1Oc2cc(cnc2N)-c2c(nn(C)c2C#N)CN(C)C(=O)c2ccc(F)cc21 [Lorlatinib]", "1 (yes)"],
  ["C[C@H]1CNC(=O)c2cnn3ccc(nc23)N[C@H](C)c2cc(F)ccc2O1 [TPX-0005, Repotrectinib]", "0 (no)"]
]}
